Just for reference, PubChem BioAssay (NCI) is where these values come from.

Let's look at some compounds and their measured growth inhibition.
# METHOD SUMMARY: NCI Yeast Anticancer Drug Screen. Data for the cln2 rad14 strain (AID 165);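 also: 0% = growth equal to vehicle treated cultures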
# STATED CONDITIONS: S. cerevisiae cln2 rad14 strain, at 50.0 µM (retest, dose inferred, filed as 5.0), active compounds read high
# Protocol: Growth inhibition of yeast strains with defined genetic alterations is measured as a screen for potential anti-cancer activity. Selected strains with alterations in DNA damage repair or cell cycle control were exposed to compounds and growth inhibition was measured relative to vehicle treated controls. The strain used in this assay is cln2 rad14
The panel holds about 79,000 compounds, 15% with a hit somewhere; the sample as a whole holds those more often.
Report the value in % with no unit label.

A selection of reference data follows.
COMPOUND	READOUT KIND	NUMERIC READOUT
Nc1ccc(CCl)cc1Cc1c(O)ccc2ccccc12	growth inhibition	61
CC1CCC2(C(=O)O)CCC3(C)C(=CCC4C5(C)CC(O)C(O)C(C)(CO)C5C(O)CC43C)C2C1C (centres undefined)	growth inhibition	77
Cc1ccc(CNc2ccc(Br)cc2)cc1	growth inhibition	97

With those in mind, consider the next compound.
Output measured growth inhibition for this item: COc1ccc(SCc2cc(OC)ccc2OC)cc1
58

---

# METHOD SUMMARY: NCI Yeast Anticancer Drug Screen. Data for the bub3 strain (AID 167)
# STATED CONDITIONS: S. cerevisiae bub3 mutant strain, at 33.0 µM, active compounds read high
# Method: Growth inhibition of yeast strains with defined genetic alterations is measured as a screen for potential anti-cancer activity. Selected strains with alterations in DNA damage repair or cell cycle control were exposed to compounds and growth inhibition was measured relative to vehicle treated controls. The strain used in this assay is bub3
Compounds without any hit were thinned out: in the full panel of roughly 79,000, 15% have a hit.
Short version: growth inhibition at least 10% is True, less is False.

Sample answers from the record:
COMPOUND	CLASS ASSIGNMENT
CCOP1(=O)C=C(Sc2ccc([N+](=O)[O-])cc2[N+](=O)[O-])C(C)(C)O1 (stereo not given)	True
COC(=O)c1ccc2c(c1)Cc1ccccc1-2	False

Item Cn1c2nc3ccccc3c-2nc2ccccc21 with growth inhibition of 10% or above?
True

Item CCC(C)(c1ccc(O)c(C)c1)c1ccc(O)c(C)c1 with growth inhibition of 10% or above?
True

Item O=[N+]([O-])c1c(/C=N/Nc2ccccc2)oc(-c2ccc3c(c2)OCO3)c1-c1ccc2c(c1)OCO2 with growth inhibition of 10% or above?
True

Item Cc1ccc(S(=O)(=O)N(C)c2ccc(Cl)cc2C2=NCCc3ccccc32)cc1 with growth inhibition of 10% or above?
False

Item O=NN(CCCl)C(=O)NC1CCCCC1 with growth inhibition of 10% or above?
True

---

Let's look at some molecules and their measured growth inhibition.
# METHOD SUMMARY: NCI Yeast Anticancer Drug Screen. Data for the mec2-1 strain (AID 157)
# STATED CONDITIONS: S. cerevisiae mec2-1 strain, at 1.2 µM, active compounds read high
# Experimental: Growth inhibition of yeast strains with defined genetic alterations is measured as a screen for potential anti-cancer activity. Selected strains with alterations in DNA damage repair or cell cycle control were exposed to compounds and growth inhibition was measured relative to vehicle treated controls. The strain used in this assay is mec2-1
This is part of a sample that, as a whole, favours compounds with a hit. Of some 79,000 tested, about 15% had one in any assay.
Report the value in % with no unit label.

MOLECULE	UNIT LABEL	NUMERIC READOUT
CCn1ncc(N=O)c1N	%	3
Cc1cccc2c1N=C(C(F)(F)F)CC2=O	%	2
CC1=CC2C(C(C)C)CC1C1C(=O)OC(=O)C21 (stereo not given)	%	-1

Output measured growth inhibition for this item: S=c1cn[nH]c2ccc(Br)cc12
2

Output measured growth inhibition for this item: CCCCCCCCCCCCCCCCCCNC(=S)/N=C\C1=C(O)c2ccccc2C1=O
-3

Output measured growth inhibition for this item: [N-]=[N+]=NC(c1ccccc1)(c1ccccc1)c1ccccc1
12
